Reference source: ChEMBL document CHEMBL1157774

// pIC50 lookup, one value per entry
tested on: A549; experiment: Growth inhibition of apoptosis-resistant human A549 cells after 72 hrs by MTT assay; assay type: functional, cell-based; conditions: A549, 72 h
pIC50: −log10 of the molar value.
REPORTED_METRIC: pIC50

>>> numeric_result("O=C1N[C@@H]2C(=C[C@H](O)[C@@H](O)[C@H]2O)c2cc3c(c(O)c21)OCO3")
7.30
>>> numeric_result("C/C=C/C=C/C(=O)[C@@H]1[C@@H]([C@]2(C)OC(=O)C(C)=C2O)C2\\C(=C(O)/C=C/C=C/C)C(=O)[C@]1(C)C(=O)[C@@]2(C)O [BISLONGIQUINOLIDE]")
4.96
>>> numeric_result("C/C=C/C=C/C(=O)C1=C(O)[C@@]2(C)C3C(C(=O)CC/C=C/C)=C(O)[C@@]4(C)C1[C@]1(C)O[C@@]4(O)[C@@]3(C)O[C@@]12O [DIHYDROTRICHODIMEROL]")
4.48
>>> numeric_result("O[C@H]1[C@H]2c3cc4c(cc3CN3CCC(=C[C@@H]1O)[C@H]23)OCO4")
5.70
